Attribute: glycan array binding signal (z-score)
Target: Neu5Ac(a2-6)GlcNAc(b1-4)GlcNAc(b1-4)GlcNAc
Test: glycan array binding signal (z-score within array); higher = stronger binding
Conditions: glycan notation: IUPAC condensed, linker removed
About 410 targets per protein were measured; listed, in parts, are those with the strongest signals and a random draw of the rest.
Please reply with the value in numeric form only.

# annotated cases, reported glycan array binding signal (z-score) shown
>>> measured_value("Epa8 (Candida glabrata) (protein) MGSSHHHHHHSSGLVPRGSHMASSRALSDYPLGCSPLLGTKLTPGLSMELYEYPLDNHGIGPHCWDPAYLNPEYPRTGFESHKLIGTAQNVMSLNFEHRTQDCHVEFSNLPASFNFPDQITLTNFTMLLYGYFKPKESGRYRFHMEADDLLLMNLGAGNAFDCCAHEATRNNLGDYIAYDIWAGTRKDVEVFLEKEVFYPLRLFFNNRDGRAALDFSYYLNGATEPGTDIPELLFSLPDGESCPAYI")
-0.271
>>> measured_value("Mg1lysM (Mycosphaerella graminicola) (protein) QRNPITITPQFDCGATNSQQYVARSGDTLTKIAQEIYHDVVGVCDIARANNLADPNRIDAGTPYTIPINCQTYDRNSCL")
4.06

In: Tell me glycan array binding signal (z-score) reported for Gz-CVNH (Gibberella zeae) (protein) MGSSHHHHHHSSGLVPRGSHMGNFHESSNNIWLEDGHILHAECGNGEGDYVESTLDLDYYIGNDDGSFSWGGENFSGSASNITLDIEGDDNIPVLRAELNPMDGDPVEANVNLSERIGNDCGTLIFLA
Out: -0.14
